The following molecules have recorded MIC on Staph. aureus 209-P.
REPORTED METRIC: MIC (µg/mL)

>>> reported_value("Nc1nc(/C(=N/OCF)C(=O)N[C@@H]2C(=O)N3C(C(=O)[O-])=C(C[n+]4cccn4CCO)CS[C@H]23)ns1 [Example 9]")
0.4
>>> reported_value("NC(=O)C12CC[N+](CC3=C(C(=O)[O-])N4C(=O)[C@@H](NC(=O)/C(=N\\OCF)c5nsc(N)n5)[C@H]4SC3)(CC1)CC2 [Example 1]")
1.56
>>> reported_value("Nc1nc(/C(=N/OCF)C(=O)N[C@@H]2C(=O)N3C(C(=O)[O-])=C(C[n+]4ccc5n4CCOC5)CS[C@H]23)ns1 [Example 8]")
0.4
>>> reported_value("CC12CC[N+](CC3=C(C(=O)[O-])N4C(=O)[C@@H](NC(=O)/C(=N\\OCF)c5nsc(N)n5)[C@H]4SC3)(CC1)CC2 [Example 2]")
0.8
>>> reported_value("Nc1nc(/C(=N/OCF)C(=O)N[C@@H]2C(=O)N3C(C(=O)[O-])=C(C[N+]45CCC(O)(CC4)C5)CS[C@H]23)ns1 [Example 3]")
0.4

###

- System: Ser. marcescens ES-75
- PROTOCOL NOTES: anti-bacterial activity, MIC, Ser. marcescens ES-75
- Assay type: cell-based
- PROTOCOL CONDITIONS: Serratia marcescens, ES75; Ser. marcescens ES-75; inoculum size 10^6 CFU/ml; read-out: MIC
Reported MIC is given for each of the following molecules.
REPORTED METRIC: MIC (µg/mL)

>>> reported_value("C[N+]1(CC2=C(C(=O)[O-])N3C(=O)[C@@H](NC(=O)/C(=N\\OCF)c4nsc(N)n4)[C@H]3SC2)CCCC1")
0.05
>>> reported_value("Nc1nc(/C(=N/OCF)C(=O)N[C@@H]2C(=O)N3C(C(=O)[O-])=C(C[n+]4ccc5n4CCOC5)CS[C@H]23)ns1")
0.05
>>> reported_value("C[N+]1(CC2=C(C(=O)[O-])N3C(=O)[C@@H](NC(=O)/C(=N\\OCF)c4nsc(N)n4)[C@H]3SC2)CC=C(C(N)=O)CC1 (stereo partly drawn)")
0.1
>>> reported_value("Nc1nc(/C(=N/OCF)C(=O)N[C@@H]2C(=O)N3C(C(=O)[O-])=C(C[N+](CCO)(CCO)CCO)CS[C@H]23)ns1")
0.4
>>> reported_value("Nc1nc(/C(=N/OCF)C(=O)N[C@@H]2C(=O)N3C(C(=O)[O-])=C(C[N+]45CCC(O)(CC4)C5)CS[C@H]23)ns1")
0.1
>>> reported_value("Nc1nc(/C(=N/OCF)C(=O)N[C@@H]2C(=O)N3C(C(=O)[O-])=C(C[n+]4ccc5n4CCCC5)CS[C@H]23)ns1")
0.05
>>> reported_value("NC(=O)C12CC[N+](CC3=C(C(=O)[O-])N4C(=O)[C@@H](NC(=O)/C(=N\\OCF)c5nsc(N)n5)[C@H]4SC3)(CC1)CC2")
0.1
>>> reported_value("Nc1nc(/C(=N/OCF)C(=O)N[C@@H]2C(=O)N3C(C(=O)[O-])=C(C[n+]4cccn4CCO)CS[C@H]23)ns1")
0.05
>>> reported_value("Nc1nc(/C(=N/OCF)C(=O)N[C@@H]2C(=O)N3C(C(=O)[O-])=C(C[N+]45CCC(CO)(CC4)CC5)CS[C@H]23)ns1")
0.1
